The measurements presented in this section are drawn from patent US7345070B2.

# STUDY_SYSTEM: UniProt P37231
# ASSAY_OVERVIEW: Cotransfection assay in CV-1 cells, huPPARγ
# Format: cell-based
# Set-up: Appropriate PPARs and RXRα were constitutively expressed using plasmids containing the CMV promoter; expressed in transfected cells; host or cells: CV-1 cells
# REPORTED_CONDITIONS: AOX PPRE luciferase reporter, relative to PPARγ agonist reference molecule, read-out: huPPARγ CTF Efficacy
EXPERIMENTAL_ENDPOINT: Emax (%)

Sample answers from the record:
compound="Cc1oc(C2CCCCC2)nc1CCOc1ccc(CC(C)(Oc2cccc(F)c2)C(=O)O)cc1 (centres unmarked)" experimental_endpoint=Emax units=% assay_result=17
compound="Cc1oc(-c2cccs2)nc1CCOc1ccc(CC(C)(Oc2ccc(F)cc2)C(=O)O)cc1 (centres unmarked)" experimental_endpoint=Emax units=% assay_result=11
compound="Cc1oc(C2CCCCC2)nc1CCOc1ccc(CC(C)(Oc2ccc(F)cc2)C(=O)O)cc1 (centres unmarked)" experimental_endpoint=Emax units=% assay_result=24
compound="Cc1ccc(OC(C)(Cc2ccc(OCCc3nc(-c4cccs4)oc3C)cc2)C(=O)O)cc1C (centres unmarked)" experimental_endpoint=Emax units=% assay_result=21
compound="Cc1ccc(OC(C)(Cc2ccc(OCCc3nc(-c4cccs4)oc3C)cc2)C(=O)O)cc1 (centres unmarked)" experimental_endpoint=Emax units=% assay_result=110

1 = Cc1oc(-c2cccs2)nc1CCOc1ccc(CC(C)(Oc2cccc(F)c2)C(=O)O)cc1 (centres unmarked)
2 = Cc1oc(CCc2ccccc2)nc1CCOc1ccc(C[C@](C)(Oc2ccccc2)C(=O)O)cc1
Kindly identify which of 1 and 2 has the larger recorded Emax value. Your choice should be expressed through its label. 1

* * *

# STUDY_SYSTEM: huPPARγ (Homo sapiens)
# Sequence (P37231 1-505): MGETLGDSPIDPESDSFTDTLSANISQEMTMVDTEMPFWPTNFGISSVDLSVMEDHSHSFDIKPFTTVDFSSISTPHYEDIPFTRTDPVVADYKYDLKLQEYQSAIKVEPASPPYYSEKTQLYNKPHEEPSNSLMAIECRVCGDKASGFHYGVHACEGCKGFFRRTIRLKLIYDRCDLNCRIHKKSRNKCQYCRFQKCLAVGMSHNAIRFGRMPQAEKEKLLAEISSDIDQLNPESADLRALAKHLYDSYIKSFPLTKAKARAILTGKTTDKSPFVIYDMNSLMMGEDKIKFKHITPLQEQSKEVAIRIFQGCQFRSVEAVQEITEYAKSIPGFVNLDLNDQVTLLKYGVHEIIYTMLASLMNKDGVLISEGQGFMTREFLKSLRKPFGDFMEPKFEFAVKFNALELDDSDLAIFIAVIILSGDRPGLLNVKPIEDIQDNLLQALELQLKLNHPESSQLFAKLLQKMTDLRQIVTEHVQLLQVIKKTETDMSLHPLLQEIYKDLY
# Sequence (P19793 1-462 partner): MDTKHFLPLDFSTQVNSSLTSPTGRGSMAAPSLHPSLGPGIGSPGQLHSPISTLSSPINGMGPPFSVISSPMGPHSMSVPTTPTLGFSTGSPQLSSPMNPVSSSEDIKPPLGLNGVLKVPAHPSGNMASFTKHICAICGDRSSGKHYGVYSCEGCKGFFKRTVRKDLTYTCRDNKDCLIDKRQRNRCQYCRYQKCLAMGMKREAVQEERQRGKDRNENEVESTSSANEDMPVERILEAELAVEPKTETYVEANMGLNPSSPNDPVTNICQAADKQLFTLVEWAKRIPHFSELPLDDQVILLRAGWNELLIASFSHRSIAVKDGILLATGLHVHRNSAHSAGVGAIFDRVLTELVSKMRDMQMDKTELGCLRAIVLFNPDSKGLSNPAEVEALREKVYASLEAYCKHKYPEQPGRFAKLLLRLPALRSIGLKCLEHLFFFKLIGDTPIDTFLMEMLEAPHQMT
# ASSAY_OVERVIEW: Cotransfection assay in CV-1 cells, huPPARγ
# Assay type: cell-based
# Design: Appropriate PPARs and RXRα were constitutively expressed using plasmids containing the CMV promoter; expressed in transfected cells; host or cells: CV-1 cells
# REPORTED_CONDITIONS: AOX PPRE luciferase reporter, relative to PPARγ agonist reference molecule, read-out: huPPARγ CTF Efficacy
EXPERIMENTAL_ENDPOINT: Emax (%)

Guide cases for Emax, answers given:
compound="Cc1cccc(OC(C)(Cc2ccc(OCCc3nc(C4CCCCC4)oc3C)cc2)C(=O)O)c1 (stereo not shown)" experimental_endpoint=Emax assay_result=35
compound="CCC(Cc1ccc(OCCc2nc(C3(C)CCCCC3)oc2C)cc1)(Oc1ccccc1)C(=O)O (stereo not shown)" experimental_endpoint=Emax assay_result=58
compound="Cc1oc(-c2ccccc2)nc1CCOc1ccc(CC(C)(Oc2ccc3c(c2)OCO3)C(=O)O)cc1 (stereo not shown)" experimental_endpoint=Emax assay_result=17
compound="Cc1oc(-c2cccs2)nc1CCOc1ccc(CC(C)(Oc2ccc(C(F)(F)F)cc2)C(=O)O)cc1 (stereo not shown)" experimental_endpoint=Emax assay_result=48
compound="Cc1cccc(OC(C)(Cc2ccc(OCCc3nc(-c4cccs4)oc3C)cc2)C(=O)O)c1 (stereo not shown)" experimental_endpoint=Emax assay_result=12

A = Cc1oc(C2CCCCC2)nc1CCOc1ccc(CC(C)(Oc2ccc(C(F)(F)F)cc2)C(=O)O)cc1 (stereo not shown)
B = Cc1oc(-c2cccs2)nc1CCOc1ccc(CC(C)(Oc2cccc(C(C)(C)C)c2)C(=O)O)cc1 (stereo not shown)
Hi, I'm comparing A with B and wondering which one has the bigger number for Emax. Any idea? Please identify the chosen entry by its label. B
